The measurements presented in this section are drawn from paper PMC12396409.

Recorded Pf_120h_%Growth_Rep2 for the following compounds
test system: P. falciparum 3D7 parasites; test: P. falciparum growth inhibition assay, 2-cycle (120 h treatment), delayed-death screen and dose-response; type: cell-based, Plasmodium falciparum; conditions: P. falciparum, 120 h, parasite screen 2 μg/mL, % growth, replicate 2
Could you give me the number in %? Just the number is fine.

Study these solved cases before continuing.
{"columns": ["compound", "Pf_120h_%Growth_Rep2 [%]"],
 "data": [
  ["C=C/C(C)=C/[C@H](C)C(=O)C[C@H](O)CC1CC(=O)NC(=O)C1", 22.01],
  ["CC[C@@H](C(=O)[C@@H](C)[C@@H](O)[C@H](C)[C@@H]1O[C@@H]([C@@H](CC)C(=O)O)CC[C@@H]1C)[C@H]1O[C@]2(C=C[C@@H](O)[C@]3(CC[C@@](C)([C@H]4CC[C@](O)(CC)[C@H](C)O4)O3)O2)[C@H](C)C[C@@H]1C [Salinomycin]", 1.02],
  ["C=C(NC(=O)C(=C)NC(=O)c1csc(C2=N[C@@H]3c4csc(n4)[C@H]4NC(=O)c5csc(n5)[C@H]([C@](C)(O)[C@@H](C)O)NC(=O)[C@H]5CSC(=N5)/C(=C/C)NC(=O)[C@H]([C@@H](C)O)NC(=O)c5csc(n5)[C@]3(CC2)NC(=O)[C@H](C)NC(=O)C(=C)NC(=O)C(=C)NC(=O)[C@H](C(C)C)N[C@@H]2C=Cc3c([C@H](C)O)cc(nc3[C@H]2O)C(=O)O[C@@H]4C)n1)C(N)=O", 55.07]
]}

Attention now shifts to the item below.
Qu. Provide Pf_120h_%Growth_Rep2 value for the following compound: `CCO[C@@H]1[C@@H](OC)[C@H](C)O[C@@H](O[C@@H]2C[C@H]3CC[C@@H]4[C@@H](C=C5C(=O)[C@H](C)[C@@H](O)CCC[C@H](CC)OC(=O)C[C@H]54)[C@@H]3C2)[C@@H]1OC`
Ans. 24.15
